System: T1, rat cMET (ELISA antigen) (rat, UniProt P97523 25-935, limits assumed)
T1 construct: also called rMET
T1 sequence (P97523 25-935 limits assumed): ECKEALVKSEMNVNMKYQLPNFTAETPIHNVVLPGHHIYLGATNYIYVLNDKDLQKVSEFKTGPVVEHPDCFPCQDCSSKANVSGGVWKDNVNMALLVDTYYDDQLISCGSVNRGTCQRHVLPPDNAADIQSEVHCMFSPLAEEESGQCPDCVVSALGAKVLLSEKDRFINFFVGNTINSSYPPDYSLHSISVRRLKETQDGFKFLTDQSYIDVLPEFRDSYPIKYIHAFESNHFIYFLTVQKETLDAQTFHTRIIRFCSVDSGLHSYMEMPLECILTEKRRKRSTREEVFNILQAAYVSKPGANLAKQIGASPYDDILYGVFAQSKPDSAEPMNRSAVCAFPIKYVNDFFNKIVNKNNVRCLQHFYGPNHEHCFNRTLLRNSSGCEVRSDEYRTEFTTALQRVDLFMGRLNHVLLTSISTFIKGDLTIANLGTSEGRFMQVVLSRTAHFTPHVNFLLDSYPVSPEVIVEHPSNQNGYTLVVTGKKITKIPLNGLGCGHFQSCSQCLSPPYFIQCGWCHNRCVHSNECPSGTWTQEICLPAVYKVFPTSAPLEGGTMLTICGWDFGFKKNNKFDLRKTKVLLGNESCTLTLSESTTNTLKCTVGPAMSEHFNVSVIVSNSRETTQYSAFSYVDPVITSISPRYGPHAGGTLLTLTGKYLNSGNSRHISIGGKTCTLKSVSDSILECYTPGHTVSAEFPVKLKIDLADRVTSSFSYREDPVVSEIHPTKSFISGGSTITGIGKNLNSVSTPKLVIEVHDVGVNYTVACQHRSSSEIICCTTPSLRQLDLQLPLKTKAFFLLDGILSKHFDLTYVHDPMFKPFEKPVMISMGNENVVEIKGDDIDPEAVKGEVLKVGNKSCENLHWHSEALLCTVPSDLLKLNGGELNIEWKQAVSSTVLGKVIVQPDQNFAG
Test Method Notes: ELISA on rat cMET, relative to parental P3D12
Measure: ELISA rMET vs parental (fold vs parental)
Kindly provide the numeric value in fold vs parental only, without the unit symbol.

Prompt: Given G2fka (humanized P3D12, VH-fra + VL-abb/sdr) (antibody, V domains shown, Humanized and isotype switched version of P3D12) VH: QVQLQQSGAEVKKPGASVKVSCKASGYTFTSYWMHWVKQRPGQGLDWIGYIKPSTDNTEYNQKFKDRVTLTADKSTSTAYMQLSNLISEDTAVYYCARSYGNYPLMDYWGQGTSVTVSS VL: QIVLTQSPATLSLSPGERATLSCRASQSVTSNYLYWYQQKPGSSPRLLIYSTSNLASGVPARFSGSGSGTDYTLTISRLEPEDFASYFCHQWSSYPPTFGSGTKLEIKR , state its recorded ELISA rMET vs parental.
Completion: 3.8

Prompt: Given G2vka (humanized P3D12, VH-ven + VL-abb/sdr) (antibody, V domains shown, Humanized and isotype switched version of P3D12) VH: QVQLVQSGAEVAKPGASVKMSCKASGYTFTSYWMHWVKQAPGQGLDWIGYIKPSTDNTEYNQKFKDKATLTADKSTSTAYMQLSSLRSEDTAVYYCARSYGNYPLMDYWGQGTTVTVSS VL: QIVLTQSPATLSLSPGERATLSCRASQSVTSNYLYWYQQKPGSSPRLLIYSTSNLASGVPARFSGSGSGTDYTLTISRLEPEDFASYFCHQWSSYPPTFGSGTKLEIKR , state its recorded ELISA rMET vs parental.
Completion: 2.7
